test system: MS2 coat protein; assay: apparent KD of MS2 coat protein; higher = weaker reporter binding; conditions: Eterna round: R107; input ligand: theophylline 20 uM
Let's look at some sequences and their measured apparent KD of MS2 coat protein.
Expressed in nM, but write only the number.

Record excerpt, results attached:
Input sequence	Target of assay	Test result
GCGCGGCGAGUGCGGCGUGUUCCGCUCCGUCGAGGACCGGUACGGCCGCCACUCGACAUGAGGAUCACCCAUGUCGCCGCGCGCG [Exclusion - Tryptophan A Attempt #3]	MS2 coat protein	22.9
AUCUUUGGCGAUCUGGGAAAACCAGAUCGACGAGGACCGGUACGGCCGCCACUCGUGUAUAAUAUACAUGAGGAUCACCCAUGUA [#18 Tryptophan A Same State]	MS2 coat protein	61.1

Find the recorded apparent KD of MS2 coat protein belonging to GGCGCGAGCCAACAUGAGGAUCACCCAUGUCGAGGACCGGUACGGCCGCCACUCGAACGAGUGGCGCGCGCGCGCGCGCGCGCGC [Vaa] and report it.
17.9

Input AAAUAAAUACAUGAGGAUCACCCAUGUGAAGGAGCGGCCGUUAGGCCAGGUAGGUCGCGCAUGAAUAACUCCGUGCAUAAGCACA [MAT - Exclusion Arginine A - Mod of Eli - D18]
16.6

---

system: K4 kissing-loop RNA reporter; experiment: apparent KD of K4 kissing-loop reporter; higher = weaker reporter binding; details: Eterna round: R107; input ligand: tryptophan 2.4 mM
Outcome measure: apparent KD of K4 kissing-loop reporter (nM)
Field format: number, assumed nM, no unit text.

Guide cases for apparent KD of K4 kissing-loop reporter, answers given:
Input sequence	Quantity unit	Test result
AAGUGUGUGGCGGCCGCCACUAGAAUCCAGUGAUGUUGGAGAUAUCUCGUAAGAGAUAUCCGCCAUAGGACCGGGCCAUAUAGAA [Same State - Tryptophan B (Freestyle 15)]	nM	771
AAAAUAACCCAGUGAUGUUGGUAUCCAGAUACCAGCGACGAAAGUCGCCCUUGGCAGCUGUGGACGUACAAAAUAAGUACGUCCU	nM	612
CGAAGACUUAUGGAUACCAGCCUAGCAUCAGGUGGUUCAGAGGCAUGCAGUGAUGUUGCAGGCCCUUGGCAGCCAUGGUACUAGA [Xelebi]	nM	79.7
UGUGUACCGGGAAGGAGCGUGAAUGAUAAUGGAUAUAGUGAUGUUAUAUAUACGAACGAAUCGCAGGUAGGUCGCCCGGAUCCCU [SSArgB.X]	nM	576

Which measured apparent KD of K4 kissing-loop reporter value corresponds to AUAGGAGUGAUGUUCCUUAGUCUCUCCGAUACCAGUAUGGAAACAUACCCUUGGCAGCGGGAGACCGCAGAUUAGGAAACUAGUC [Theophylline A K4 5] ?
172

---

tested on: K4 kissing-loop RNA reporter; assay: apparent KD of K4 kissing-loop reporter; higher = weaker reporter binding; details: Eterna round: R107; input ligand: none
Outcome measure: apparent KD of K4 kissing-loop reporter (nM)
# value in nM; strip the unit string

Input sequence	Target of assay	Quantity unit	Test result
CCGAUACAUUAUUCUACGGCCGAGAGUGAUACCAGCCAUAUUUAUGGCCCUUGGCAGCGCAGAUGCAGUGAUGUUGCAUACUUAC [Same State Theophylline A GF 19]	K4 kissing-loop RNA reporter	nM	91.5
CCUCUCCUUGAUAGUGAUGUUAUCAAGGACAAGGAUAUCAUCUCAAUGAGAAGGUGUCCUUGAUAACAUGGAGGUCUGAAACAGA [Omei KL FMN A Exc C v1]	K4 kissing-loop RNA reporter	nM	136

Please examine the following record next.
API: value(readout=apparent KD of K4 kissing-loop reporter, system=K4 kissing-loop RNA reporter) for record UGACUGGACUGAAGGAGCGUUCAGGUAGGUCGCUAAGGAGUGAUGUUCCAUAGAAGGAGCGAACAGGUAGGUCGCAGUCUAGUCU [ArgBS 29 #DoubleAptamer #SwitchBubble];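 also: bound reporter read as fluorescence of individual clusters on recovered sequencing chips by microscopy, with normalized cluster intensities fitted with a binding model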
163
